assay: recombinant UMI read abundance after kanamycin selection (control-corrected) (log10(CPM+1)); higher = more efficient recombination; extreme values may be limits of the assay; sequences stand for … in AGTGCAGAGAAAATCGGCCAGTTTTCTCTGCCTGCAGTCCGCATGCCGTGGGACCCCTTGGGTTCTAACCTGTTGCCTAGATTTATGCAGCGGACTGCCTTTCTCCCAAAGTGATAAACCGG…AGGTTGGTTTCACT; site = the 11-nt donor;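 further: IS621 bridge recombinase in Escherichia coli cells against a fixed T5 target plasmid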
Decision: recombinant UMI read abundance (log10) compared against 0.05; not below it gives label 1, below it gives label 0.

Use these answered entries as a reference point.
ACATTGTCATGGACCGGTTTTCCCGGTAATCCGTATTTGCA (site ACATTGTCTTG) : label 1
TGTGCACCATGGACCGGTTTTCCCGGTAATCCGTATTTGAC (site TGTACACCTGT) : label 0
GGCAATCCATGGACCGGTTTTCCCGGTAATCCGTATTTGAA (site GGCAATCCTTT) : label 1
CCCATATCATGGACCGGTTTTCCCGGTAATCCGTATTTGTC (site CCCAAATCTGA) : label 0
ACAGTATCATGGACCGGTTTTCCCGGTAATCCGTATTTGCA (site ACAGTATCTTG) : label 1
GTAGCTGCATGGACCGGTTTTCCCGGTAATCCGTATTTGTG (site TTAGCTGCTCA) : label 0

Kindly determine if recombinant UMI read abundance (log10) recorded for GTAGTCGCATGGACCGGTTTTCCCGGTAATCCGTATTTGCG (site CTAGTCGCTCG) is above or exactly 0.05. label 1

Kindly determine if recombinant UMI read abundance (log10) recorded for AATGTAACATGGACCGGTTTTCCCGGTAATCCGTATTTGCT (site AATTTAACTAG) is above or exactly 0.05. label 1

Kindly determine if recombinant UMI read abundance (log10) recorded for CAAGCGGCATGGACCGGTTTTCCCGGTAATCCGTATTTGTG (site CAAGCGGCTCA) is above or exactly 0.05. label 1

Kindly determine if recombinant UMI read abundance (log10) recorded for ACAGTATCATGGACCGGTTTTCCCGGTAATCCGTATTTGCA (site ACTGGATCTTG) is above or exactly 0.05. label 0

Kindly determine if recombinant UMI read abundance (log10) recorded for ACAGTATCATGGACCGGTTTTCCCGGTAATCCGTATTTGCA (site ACGGTATCTCG) is above or exactly 0.05. label 0

* * *

test: recombinant UMI read abundance after kanamycin selection (control-corrected) (log10(CPM+1)); higher = more efficient recombination; extreme values may be limits of the assay; sequences stand for … in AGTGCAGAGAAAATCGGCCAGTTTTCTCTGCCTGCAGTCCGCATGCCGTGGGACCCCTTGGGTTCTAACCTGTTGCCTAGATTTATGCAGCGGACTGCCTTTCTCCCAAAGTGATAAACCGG…AGGTTGGTTTCACT; site = the 11-nt donor
Classification scheme (recombinant UMI read abundance (log10)): Low: < 0.004; Mid: ≥ 0.004 and < 0.7; High: ≥ 0.7

CTTACTACATGGACCGGTTTTCCCGGTAATCCGTATTTGGA (site CTTACTACTTC) : Mid

Place this sequence in its band: ATTCCGGCATGGACCGGTTTTCCCGGTAATCCGTATTTGCT (site ATTCCGGCTAG) Mid

Place this sequence in its band: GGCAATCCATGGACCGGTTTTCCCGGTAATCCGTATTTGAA (site GGCACTCCTTT) Low

Place this sequence in its band: AATTATGCATGGACCGGTTTTCCCGGTAATCCGTATTTGCA (site AATTATGCTTA) Mid

Place this sequence in its band: CGTGTAACATGGACCGGTTTTCCCGGTAATCCGTATTTGTT (site CGTGTAACTAA) High

Place this sequence in its band: AGAGGAGCATGGACCGGTTTTCCCGGTAATCCGTATTTGGC (site AGAGGAGCTGC) High

Place this sequence in its band: CGGTAGTCATGGACCGGTTTTCCCGGTAATCCGTATTTGCC (site CGGGAGTCTGG) Low

* * *

assay: recombinant UMI read abundance after kanamycin selection (control-corrected) (log10(CPM+1)); higher = more efficient recombination; extreme values may be limits of the assay; sequences stand for … in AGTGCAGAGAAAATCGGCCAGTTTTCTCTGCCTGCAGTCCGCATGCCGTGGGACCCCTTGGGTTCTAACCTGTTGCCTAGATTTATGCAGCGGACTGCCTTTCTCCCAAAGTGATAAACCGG…AGGTTGGTTTCACT; site = the 11-nt donor
Decision: recombinant UMI read abundance (log10) compared against 0.01; not below it gives Yes, below it gives No.

Use these answered entries as a reference point.
GGACTAGCATGGACCGGTTTTCCCGGTAATCCGTATTTGCG (site GGACTAGCTCG) : Yes
GTTTGGACATGGACCGGTTTTCCCGGTAATCCGTATTTGAC (site GGTTGGACTGT) : No
AAATCGACATGGACCGGTTTTCCCGGTAATCCGTATTTGGT (site AAATCGACTAC) : Yes
CCTGGCACATGGACCGGTTTTCCCGGTAATCCGTATTTGAA (site CCTGGCACTTT) : Yes
TAGGATTCATGGACCGGTTTTCCCGGTAATCCGTATTTGCG (site TAGGACTCTCG) : Yes

Kindly determine if recombinant UMI read abundance (log10) recorded for TGGCCGGCATGGACCGGTTTTCCCGGTAATCCGTATTTGCC (site TGGCCGGCTGC) is above or exactly 0.01. No

Kindly determine if recombinant UMI read abundance (log10) recorded for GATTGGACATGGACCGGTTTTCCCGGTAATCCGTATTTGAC (site TATTGGACTGT) is above or exactly 0.01. Yes

Kindly determine if recombinant UMI read abundance (log10) recorded for CCAGTATCATGGACCGGTTTTCCCGGTAATCCGTATTTGCC (site CTAGTATCTGT) is above or exactly 0.01. No

Kindly determine if recombinant UMI read abundance (log10) recorded for TAAGTCACATGGACCGGTTTTCCCGGTAATCCGTATTTGGG (site AAAGTCACTCC) is above or exactly 0.01. Yes

* * *

assay: recombinant UMI read abundance after kanamycin selection (control-corrected) (log10(CPM+1)); higher = more efficient recombination; extreme values may be limits of the assay; sequences stand for … in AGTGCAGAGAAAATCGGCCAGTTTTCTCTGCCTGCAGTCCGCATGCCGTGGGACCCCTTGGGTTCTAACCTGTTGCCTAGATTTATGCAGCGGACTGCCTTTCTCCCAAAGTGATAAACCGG…AGGTTGGTTTCACT; site = the 11-nt donor
endpointLabel: recombinant UMI read abundance (log10)
# print the numeric value only

GTTCGAACATGGACCGGTTTTCCCGGTAATCCGTATTTGGC (site GTTCGAACTGC) : 0.869

May I ask what recombinant UMI read abundance (log10) has been recorded for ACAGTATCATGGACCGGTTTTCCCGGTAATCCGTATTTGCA (site ACAGTATCTTT) ? 2.17

May I ask what recombinant UMI read abundance (log10) has been recorded for CGTTGACCATGGACCGGTTTTCCCGGTAATCCGTATTTGGA (site CGTTGACCTTC) ? 0.0127

* * *

assay: recombinant UMI read abundance after kanamycin selection (control-corrected) (log10(CPM+1)); higher = more efficient recombination; extreme values may be limits of the assay; sequences stand for … in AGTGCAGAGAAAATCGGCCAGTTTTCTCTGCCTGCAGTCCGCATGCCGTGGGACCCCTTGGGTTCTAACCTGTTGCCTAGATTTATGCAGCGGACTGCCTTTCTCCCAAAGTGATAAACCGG…AGGTTGGTTTCACT; site = the 11-nt donor
The following sequences are shown together with reported recombinant UMI read abundance (log10) values.

The cases that follow already have their recombinant UMI read abundance (log10) on record.
GCTAGGCCATGGACCGGTTTTCCCGGTAATCCGTATTTGAG (site GCTAGGCCTCT) : 0.0384
GGCTAATCATGGACCGGTTTTCCCGGTAATCCGTATTTGAT (site GGCTAATCTAT) : 0.935
CGATTGACATGGACCGGTTTTCCCGGTAATCCGTATTTGTT (site CGATGGACTAA) : 0.00746
ACAGTCTCATGGACCGGTTTTCCCGGTAATCCGTATTTGCA (site ACAGTCTCTTG) : 3.22
CTCTACCCATGGACCGGTTTTCCCGGTAATCCGTATTTGCT (site CTCTACTCTAG) : 2.87

May I ask what recombinant UMI read abundance (log10) has been recorded for AGAAAGGCATGGACCGGTTTTCCCGGTAATCCGTATTTGAT (site AGAAAGGCTAC) ? 0

May I ask what recombinant UMI read abundance (log10) has been recorded for TCCACCGCATGGACCGGTTTTCCCGGTAATCCGTATTTGCA (site TCCACCGCTAG) ? 0.00852

May I ask what recombinant UMI read abundance (log10) has been recorded for GGTACGTCATGGACCGGTTTTCCCGGTAATCCGTATTTGTC (site GGTACGTCTGA) ? 0.0103

May I ask what recombinant UMI read abundance (log10) has been recorded for GAAGATACATGGACCGGTTTTCCCGGTAATCCGTATTTGTT (site GAAGATACTAA) ? 2.29
